- systemTested: T1, human CCR8 (human, UniProt P51685 1-355)
- T1 construct: Full length; also called huCCR8; C-C motif chemokine receptor 8
- T1 sequence (P51685 whole entry): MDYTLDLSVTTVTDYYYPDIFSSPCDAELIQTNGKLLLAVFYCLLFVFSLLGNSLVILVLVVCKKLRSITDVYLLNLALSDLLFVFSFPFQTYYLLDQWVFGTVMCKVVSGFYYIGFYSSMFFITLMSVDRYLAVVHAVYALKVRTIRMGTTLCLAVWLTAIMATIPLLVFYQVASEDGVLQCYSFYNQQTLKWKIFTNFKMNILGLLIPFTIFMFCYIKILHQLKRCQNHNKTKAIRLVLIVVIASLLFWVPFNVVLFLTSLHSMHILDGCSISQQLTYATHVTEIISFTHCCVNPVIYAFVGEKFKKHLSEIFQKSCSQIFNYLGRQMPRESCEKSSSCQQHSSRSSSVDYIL
- assayInfo: flow cytometry, stimulated human primary Treg cells (high CCR8)
Answer each item with its documented pEC50.
One number for each entry, as −log10 of the molar value.

binder: hu305-4F-2m-AF (antibody, V domains shown) VH: QVQLQESGPGLVKPSQTLSLTCTVSGFSLAVYGVHWVRQPPGKGLEWLGVIWRGGTTDYNPSLKSRLTFSKDSSKSQVSLKLSSVTAADTAVYYCAKNRVTTVVAPNFYAMDYWGQGTLVTVSS VL: DIVMTQSPDSLAVSLGERVTINCKSSQSLLYSGNQKNYLAWYQQKPGQSPKLLIYWASTRKSGVPDRFSGSGSGTDFTLTISSLQAEDVAAYYCQQYYTYPLTFGQGTRLEIK
reportedMeasurement: 6.87

binder: hu305-4F-2l-AF (antibody, V domains shown, also called hu305-4F-21-AF; hu305-4F-21) VH: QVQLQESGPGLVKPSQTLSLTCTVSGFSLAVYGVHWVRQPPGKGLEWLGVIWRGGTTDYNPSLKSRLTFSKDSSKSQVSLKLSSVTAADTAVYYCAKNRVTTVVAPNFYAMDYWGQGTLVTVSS VL: DIVMTQSPDSLAVSLGERVTMNCKSSQSLLYSGNQKNYLAWYQQKPGQSPKLLIYWASTRKSGVPDRFSGSGSGTDFTLTISSLQAEDVAAYYCQQYYTYPLTFGQGTRLEIK
reportedMeasurement: 6.93

binder: Ch305-AF (antibody, V domains shown, human IgG1/kappa; also called afucosylated Ch305) VH: QVQMKQSGPSLVQPSQSLSITCTVSGFSLTSYGVHWVRQSPGKGLEWLGVIWRGGTTDYNAAFMSRLSFTKDSSKSQVFFKLNSLQADDTAIYYCAKNRVTTVVAPNFYAMDYWGQGTSVTVSS VL: DIVMTQSPSSLAVSVGEKVTMSCKSSQSLLYSGNQKNYLAWYQQKPGQSPKLLIYWASTRKSGVPDRLTGSGSGTDFTLTISSVKAEDLAAYYCQQYYTYPLTFGAGTRLEIK
reportedMeasurement: 7.04

Continue with the next binder.
Please indicate pEC50 recorded for hu305-5P-3a-AF (antibody, V domains shown) VH: QVQLKQSGPGLVKPSETLSLTCTVSGFSLTSYGVHWVRQPPGKGLEWLGVIWRGGTTDYNPSLKSRVTFSKDSSKNQVSLKLSSVTAADTAVYYCAKNRVTTVVAPNFYAMDYWGQGTLVTVSS VL: DIVMTQSPDSLAVSLGERATINCKSSQSLLYSGNQKNYLAWYQQKPGQPPKLLIYWASTRKSGVPDRFSGSGSGTDFTLTISSLKAEDVAVYYCQQYYTYPLTFGQGTRLEIK
7.45
